Biological target: Tyrosine-protein kinase Fes/Fps (Homo sapiens) (UniProt P07332)
Sequence (P07332 whole entry): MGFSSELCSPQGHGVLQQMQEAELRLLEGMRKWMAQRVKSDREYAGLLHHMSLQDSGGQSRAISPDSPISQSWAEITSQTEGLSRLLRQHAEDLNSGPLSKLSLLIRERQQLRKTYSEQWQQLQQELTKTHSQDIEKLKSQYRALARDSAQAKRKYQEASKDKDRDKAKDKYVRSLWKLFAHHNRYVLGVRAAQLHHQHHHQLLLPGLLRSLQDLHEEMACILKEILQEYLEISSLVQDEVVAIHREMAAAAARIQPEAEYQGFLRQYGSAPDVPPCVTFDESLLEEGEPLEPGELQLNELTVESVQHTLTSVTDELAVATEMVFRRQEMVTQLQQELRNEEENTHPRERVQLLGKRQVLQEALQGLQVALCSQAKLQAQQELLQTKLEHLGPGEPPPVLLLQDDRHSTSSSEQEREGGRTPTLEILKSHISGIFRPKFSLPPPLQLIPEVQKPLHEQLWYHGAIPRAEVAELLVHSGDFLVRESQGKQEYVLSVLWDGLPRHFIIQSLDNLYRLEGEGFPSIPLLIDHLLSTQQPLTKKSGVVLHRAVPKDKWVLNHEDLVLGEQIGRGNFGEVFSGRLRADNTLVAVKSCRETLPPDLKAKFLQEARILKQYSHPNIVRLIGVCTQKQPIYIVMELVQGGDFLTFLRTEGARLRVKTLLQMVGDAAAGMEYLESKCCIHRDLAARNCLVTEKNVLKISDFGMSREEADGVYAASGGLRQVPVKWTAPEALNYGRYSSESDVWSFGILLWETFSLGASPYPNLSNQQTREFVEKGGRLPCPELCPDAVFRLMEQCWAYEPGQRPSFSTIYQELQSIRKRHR
Settings: at 0.1 µM
Description: GSK_PKIS: FES mean inhibition at 0.1 uM [Nanosyn]

sample.smiles: CNC(=O)c1cncc(/C=C/c2ccccc2Cl)c1
test.target: Tyrosine-protein kinase Fes/Fps (Homo sapiens) (UniProt P07332)
inhibition [%]: 0.21
//
sample.smiles: COc1cc(Nc2nccc(Nc3ccc4c(C)n[nH]c4c3)n2)cc(OC)c1OC
test.target: Tyrosine-protein kinase Fes/Fps (Homo sapiens) (UniProt P07332)
inhibition [%]: 3.05
//
sample.smiles: CCn1c(-c2nonc2N)nc2c(C#CC(C)(C)O)ncc(OC3CCNCC3)c21
test.target: Tyrosine-protein kinase Fes/Fps (Homo sapiens) (UniProt P07332)
inhibition [%]: 2.9
//
sample.smiles: CCCN(CCS(C)(=O)=O)Cc1ccc(-c2ccc3ncnc(Nc4ccc(OCc5cccc(F)c5)c(Cl)c4)c3c2)o1
test.target: Tyrosine-protein kinase Fes/Fps (Homo sapiens) (UniProt P07332)
inhibition [%]: 1.38
//
sample.smiles: NS(=O)(=O)c1ccc(Nc2ncc(-c3ccccc3)o2)cc1
test.target: Tyrosine-protein kinase Fes/Fps (Homo sapiens) (UniProt P07332)
inhibition [%]: 2.8

These entries and their values trace back to ChEMBL document CHEMBL1961873.
